assay: Plasma stability study; format: in vitro ADME; details: 500 µM in 25% human plasma in water, 37 °C, after 1 h, LC-QTOF-MS EIC peak area relative to 0 min; read-out: degradation in human plasma
Non-standard residues stand in square brackets, D forms with d. Residues, ends and D or L forms follow the SMILES beside them. Dip = N[C@H](C(=O)O)C(c1ccccc1)c1ccccc1
PROPERTY MEASURED: metabolised at 1 h, 500 µM

Exercise: Could you tell me which metabolised at 1 h, 500 µM is on file for N=C(N)NCCC[C@@H]1NC(=O)[C@H](C(c2ccccc2)c2ccccc2)NC(=O)[C@H](CCCNC(=N)N)NC(=O)[C@H](C(c2ccccc2)c2ccccc2)NC(=O)[C@H](CCCNC(=N)N)NC(=O)[C@H](C(c2ccccc2)c2ccccc2)NC(=O)[C@H](CCCNC(=N)N)NC(=O)[C@H](C(c2ccccc2)c2ccccc2)NC(=O)[C@H](CCCNC(=N)N)NC(=O)[C@H](C(c2ccccc2)c2ccccc2)NC1=O [[DipR]5] (cyclo([Dip]R[Dip]R[Dip]R[Dip]R[Dip]R)) ?
Solution: ~15%

Measured values drawn from paper PMC8997995 for this set.
